test system: SK-MEL-2 melanoma; experiment: NCI-60 one-dose screen, 48 h (100 = growth as untreated, 0 = no growth, -100 = all killed); conditions: 10 µM
Compounds without any hit were thinned out: in the full panel of roughly 83,000, 20% have a hit.
measure_name: growth (%)

INSERT INTO measurements (compound, measure_name, data_value) VALUES
  ('Fc1ccc(/C=C/c2nc3ccccc3n3c(-c4ccc(Cl)cc4)nnc23)cc1', 'growth', 102),
  ('CCOC(=O)C1=C(N)N(c2ccc(C)cc2)C2=C(C(=O)CC(C)(C)C2)C1c1ccccc1Br (stereo not given)', 'growth', 85),
  ('COc1ccc(Cn2cc(C#N)c(N)c2C(C)=O)c(OC)c1', 'growth', 126),
  ('CC1[C@H]2[C@H](C[C@H]3[C@@H]4CC=C5c6sc(Nc7cccc(Cl)n7)nc6CC[C@]5(C)[C@H]4CC[C@@]32C)O[C@]12CC[C@@H](C)CO2 (stereo not given in full)', 'growth', 76.9),
  ('COc1ccc(-n2c(SCC(=O)NNS(=O)(=O)c3ccccc3)nc3ccc(Cl)cc3c2=O)cc1', 'growth', 100),
  ('Cn1cc(-c2nnc(N)nc2-c2c[nH]c3ccccc23)c2cc(Br)cnc21', 'growth', 46.2),
  ('COc1cc(C2CC(c3ccccc3)=Nc3c(N)nc(N)nc3N2)ccc1Oc1nc(NCCO)nc(N2CCOCC2)n1 (stereo not given)', 'growth', 99.7),
  ('O=C(c1ccccc1)c1ccc2nc(-c3ccccc3Br)[nH]c2c1', 'growth', -93.9),
  ('COc1cc(C2CC(c3ccc(Oc4ccc(Cl)cc4)cc3)=NN2c2nc(-c3ccc(Cl)cc3)c(C#N)c(N3CCOCC3)n2)cc(OC)c1OC (stereo not given)', 'growth', 106),
  ('CCOC(=O)c1ccc(NC(=O)CSC(CC(=O)c2sc(Nc3ccccn3)nc2C)c2ccccc2F)cc1 (stereo not given)', 'growth', -31.2),
  ('CCOc1ccc(/C=N/NC(=O)Cn2nc(Cc3ccc(OC)cc3)c3onc(C)c3c2=O)cc1', 'growth', 55.9),
  ('Cc1ccc2c(c1)C(=O)/C(=C/c1c[nH]c3ccccc13)S2', 'growth', 99.7),
  ('Cc1ccc(COc2ccc(NC(=O)Nc3ccc(Cl)c(C(F)(F)F)c3)cc2)cc1', 'growth', 85.3),
  ('Nc1nnc(-c2c[nH]c3ncc(Br)cc23)c(-c2c[nH]c3ccc(Br)cc23)n1', 'growth', 7.13),
  ('O=C(CC(=O)Nc1ccc(Oc2ncnc3scc(Nc4n[nH]c(=S)s4)c23)cc1)Nc1ccc(Cl)cc1', 'growth', 98.3);
